Test system: Plasmodium falciparum
Test: GSK_TCMDC: Inhibition of Plasmodium falciparum 3D7 in whole red blood cells, using parasite LDH activity as an index of growth. Test compounds present at 2uM
Assay type: functional
metric_name: Inhibition
Show the value, then the unit it is measured in.

Illustrative cases are given below, each with its answer.
{"compound": "c1ccc2[nH]c(-c3ccc(-c4ccc(CN5CCC(N6CCCCC6)CC5)cc4)s3)nc2c1", "observed_value": "99%"}
{"compound": "CC(=O)c1c[nH]c2ccc(/C=C/C(=O)NC3CCC(CCN4CCc5ccc(C#N)cc5CC4)CC3)cc12.Cl (stereo not drawn)", "observed_value": "100%"}
{"compound": "COc1ccc(-c2cccc(NC(=O)c3cccc(Cl)c3)c2)cc1CN1CCN(C)CC1.O=C(O)C(F)(F)F", "observed_value": "100%"}

Q: Retrieve Inhibition measured for "COc1cccc(CN2CCN(C(c3ccccc3)c3ccccc3)CC2)c1O.O=C(O)C(=O)O" and print it.
Result: 99%

Q: Retrieve Inhibition measured for COc1ccc(C2C(C(=O)Nc3ccc(C)cc3Br)c3ccccc3C(=O)N2C)cc1 (stereo not drawn) and print it.
Result: 96%

Q: Retrieve Inhibition measured for "CN1CCN(c2ccc(-c3cc(-c4ccncc4)c(-c4ccc(Cl)c(O)c4)o3)cc2)CC1.Cl" and print it.
Result: 100%

Q: Retrieve Inhibition measured for "O=C(NC1CCCCC1)N(Cc1ccc(-c2ccc(CNCc3ccc4c(c3)OCO4)cc2)cc1)C1CCN(Cc2ccccc2)CC1.O=C(O)C(F)(F)F" and print it.
Result: 100%

Q: Retrieve Inhibition measured for CC(CNC(=O)[C@H]1CNCCN1C(=O)CCCc1ccccc1)c1ccccc1.O=C(O)C(F)(F)F (stereo partly drawn) and print it.
Result: 94%

====

Entries and their measured Inhibition follow.
Tested on: Plasmodium falciparum
Test: GSK_TCMDC: Inhibition of Plasmodium falciparum 3D7 in whole red blood cells, using parasite LDH activity as an index of growth. Test compounds present at 2uM
Assay type: functional
Write the number in % without appending the unit.

Illustrative cases are given below, each with its answer.
{"compound": "CC(C)COc1ccc(Cl)cc1Cc1nc(-c2nc3ccc(CN4CCCC4)cc3[nH]2)co1.Cl", "metric_name": "Inhibition", "observed_value": 100}
{"compound": "CC(Nc1cc(-c2ccccn2)nc(-c2ccccn2)n1)c1ccccc1 (centres undefined)", "metric_name": "Inhibition", "observed_value": 85}

Q: Retrieve Inhibition measured for "O=C(Nc1cccc(-c2ccc(-c3nc4ccccc4[nH]3)cc2)c1)c1csnn1" and print it.
Result: 91

Q: Retrieve Inhibition measured for "COc1ccc(Nc2ccnc3cc(Cl)ccc23)cc1OC" and print it.
Result: 100

Q: Retrieve Inhibition measured for "CC(C)CNCc1ccc(-c2ccc(CN(C(=O)NCCc3ccccc3)C3CCN(Cc4ccccc4)CC3)cc2)cc1.O=C(O)C(F)(F)F" and print it.
Result: 98

Q: Retrieve Inhibition measured for "O=[N+]([O-])c1nc(Br)n(Cc2ccc(Cl)cc2)n1" and print it.
Result: 96

====

Tested on: HepG2
Assay: GSK_TCMDC: Percent inhibition of human HepG2 cell line. Test compounds present at 10uM.
Format: functional
Mark True for reported Inhibition of 10% or greater; mark False for anything smaller.

Record excerpt, results attached:
{"compound": "O=C(/C=C/c1c[nH]c2ccccc12)NCCCCCN1CCC(c2c[nH]c3ccccc23)CC1", "class_label": "True"}
{"compound": "CCCCc1ccc(Cc2cnc3nc(N)nc(N)c3c2C)cc1", "class_label": "True"}

Q: Evaluate "Cc1cc(-c2nc3ccc(CN4CCN(C)CC4)cc3[nH]2)nn1Cc1cc(Cl)ccc1OCc1ccccc1.Cl" : Inhibition at minimum 10%?
Result: False

Q: Evaluate "Cn1c(Cc2ccccc2)nnc1Sc1ccc(C#N)c([N+](=O)[O-])c1" : Inhibition at minimum 10%?
Result: False

Q: Evaluate "FC(F)(F)Oc1ccc(Nc2cc(-c3ccncc3)nc(-c3cccnc3)n2)cc1" : Inhibition at minimum 10%?
Result: True

Q: Evaluate CCc1ccc(-n2c(NC(=O)c3ccccc3)nc3ccc(S(=O)(=O)NC(C)C(C)C)cc32)cc1 (centres undefined) : Inhibition at minimum 10%?
Result: True

Q: Evaluate O=C(NCc1ccccc1[S+]([O-])c1ccccc1CO)C(F)(F)F (centres undefined) : Inhibition at minimum 10%?
Result: True

Q: Evaluate O=C(Cc1cccs1)NCC(c1ccccc1Cl)c1c[nH]c2ccccc12 (centres undefined) : Inhibition at minimum 10%?
Result: True

Q: Evaluate "COc1ccc2nccc([C@@H](O)CN3CCC(NCc4nc5ccccc5s4)CC3)c2c1.O=C(O)C(=O)O" : Inhibition at minimum 10%?
Result: False

Q: Evaluate "Br.C=CCc1cccc(C)c1OCCCON1C(=N)N=C(N)NC1(C)C" : Inhibition at minimum 10%?
Result: True

Q: Evaluate "COc1ccc(NC(=O)[C@H](Cc2ccccc2)Nc2cc(C)nc(NCCOc3ccccc3)n2)cc1.O=C(O)C(F)(F)F" : Inhibition at minimum 10%?
Result: True

Q: Evaluate "COc1ccc2nccc([C@@H](O)CN3CCC(NC(=O)/C=C/c4cc([N+](=O)[O-])ccc4OC)CC3)c2c1" : Inhibition at minimum 10%?
Result: True

Q: Evaluate "CC[C@@H]([C@@H](CC(C)C)C(=O)N[C@@H](CCCCNC(=O)OCc1ccccc1)C(=O)Nc1ccccn1)N(O)C=O" : Inhibition at minimum 10%?
Result: False

Q: Evaluate "CCNc1cc(C(=O)N[C@@H](Cc2ccccc2)[C@H](O)CNC2CCC(F)(F)CC2)c(F)c(N2CCCCS2(=O)=O)c1.O=CO" : Inhibition at minimum 10%?
Result: False

Q: Evaluate "c1ccc(Oc2ccc(Nc3ccnc4cc(-c5ccc(CN6CCCCC6)o5)ccc34)cc2)nc1" : Inhibition at minimum 10%?
Result: True

Q: Evaluate "CCN(CCCN1CCCCC1)c1cc(C)nc(Nc2ccc(Oc3ccccc3)cc2)n1.O=C(O)C(F)(F)F" : Inhibition at minimum 10%?
Result: True

Q: Evaluate "Oc1ccccc1CN(CCCN(Cc1ccccn1)Cc1ccccc1O)Cc1ccccn1" : Inhibition at minimum 10%?
Result: True

====

Test system: Plasmodium falciparum
Assay: GSK_TCMDC: Inhibition of Plasmodium falciparum Dd2 in whole red blood cells, using parasite LDH activity as an index of growth. Test compounds present at 2uM
Assay type: functional
Mark y for reported Inhibition of 80% or greater; mark n for anything smaller.

Record excerpt, results attached:
{"compound": "COc1ccc(C2N=C(N)N=C(N)N2c2ccc(Cl)cc2)cc1OC.Cl (centres undefined)", "class_label": "n"}
{"compound": "CCNCc1ccc(-c2cc3ncnc(Nc4ccc(OCc5cccc(F)c5)c(Cl)c4)c3s2)[nH]1", "class_label": "n"}
{"compound": "O=C(NC1CCCCC1)c1csc(C2CCCN(C(=O)c3ccc(O)c(-c4cccc(C(F)(F)F)c4)c3)C2)n1 (centres undefined)", "class_label": "y"}

Q: Evaluate "Cc1nc(C)c(-c2ccc(C(=O)c3ccc(Cl)cc3)cc2)c(O)c1Cl" : Inhibition at minimum 80%?
Result: y

Q: Evaluate "Cc1nnsc1C(=O)Nc1ccc(-c2cccc(-c3nc4cccc(C)c4[nH]3)c2)cc1" : Inhibition at minimum 80%?
Result: n

Q: Evaluate "N#Cc1ccc(N/C(=N\c2cccc(Cl)c2Cl)NCc2ccc(Cl)cc2Cl)c(O)c1" : Inhibition at minimum 80%?
Result: n

Q: Evaluate "CCNc1cc(C)nc(Nc2ccc(C)cc2)n1" : Inhibition at minimum 80%?
Result: y

Q: Evaluate Cc1cccc2nc(-c3ccc(-c4cccc(CN5CCCC5CN)c4)s3)[nH]c12.O=C(O)C(F)(F)F (centres undefined) : Inhibition at minimum 80%?
Result: n

Q: Evaluate COc1cc2c(c(OC)c1[N+](=O)[O-])C=CC1(O2)N(C)c2ccc([N+](=O)[O-])cc2C1(C)C (centres undefined) : Inhibition at minimum 80%?
Result: y

Q: Evaluate CC(Cc1ccc(NC(=O)c2ccc(CNCCCCc3ccccc3)cc2)cc1)NCCc1cccc(Cl)c1.Cl (centres undefined) : Inhibition at minimum 80%?
Result: y

Q: Evaluate "Cc1cc([N+](=O)[O-])ccc1N1CCN(CCCCNC(=O)c2ccc(NC(=O)c3ccc(Cl)cc3)cc2)CC1" : Inhibition at minimum 80%?
Result: n

====

Entries and their measured Inhibition follow.
System: Plasmodium falciparum
Test: GSK_TCMDC: Inhibition of Plasmodium falciparum Dd2 in whole red blood cells, using parasite LDH activity as an index of growth. Test compounds present at 2uM
Assay type: functional
Write the number in % without appending the unit.

Illustrative cases are given below, each with its answer.
{"compound": "CCC1CN2CCc3c([nH]c4ccccc34)C2CC1CC1=NCCc2c1[nH]c1ccc(OC)cc21.Cl (centres undefined)", "unit_string": "%", "Inhibition": 68}
{"compound": "COc1cc(NC(=O)/C=C/c2cc(F)cc(F)c2F)cc(OCCN2CCN(CCN3CCOCC3)CC2)c1.O=C(O)C(=O)O", "unit_string": "%", "Inhibition": 94}
{"compound": "CNCCNc1nccc(N2CCc3ncnc(Nc4ccc(OCc5cccc(F)c5)c(Cl)c4)c3C2)n1", "unit_string": "%", "Inhibition": 98}
{"compound": "O=C(Nc1cccc(-c2cccc(-c3nc4cc(C(F)(F)F)ccc4[nH]3)c2)c1)Nc1ccc(F)c(F)c1F", "unit_string": "%", "Inhibition": 100}
{"compound": "CC(C)N1CCN(C(=O)c2ccc(CN(C)CCCN3CCN(c4cccc(Cl)c4Cl)CC3)s2)CC1.Cl", "unit_string": "%", "Inhibition": 35}

Now look at this entry.
Q: Lab note: record Inhibition of "CCCCN1CCN(CCCNc2c3ccccc3nc3ccccc23)CC1.Cl" tested on Plasmodium falciparum.
Result: 70
